Test target: Cdc42 (UniProt P60953 1-191)
Sequence (P60953 whole entry): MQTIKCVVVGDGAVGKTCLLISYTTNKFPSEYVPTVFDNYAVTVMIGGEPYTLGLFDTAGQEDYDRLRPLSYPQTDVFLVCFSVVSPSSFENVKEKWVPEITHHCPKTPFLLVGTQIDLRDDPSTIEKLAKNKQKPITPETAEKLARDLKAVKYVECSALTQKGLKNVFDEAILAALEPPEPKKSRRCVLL
Assay: other fluorescence titration
pKd: −log10 of the molar value. Numbered stars: 1 amine (or outer) side, 2 acyl side, 3 side chain; on linkers, the order of the positions; unused ones are H or OH. Square brackets hold non-standard residues; d marks the D form. Side chains are listed from the residue outwards. 4‑DMNA = 4-N,N-dimethylamino-1,8-naphthalimido-alanine, CN(C)c1ccc2c3c(cccc13)C(=O)N(C[C@H](N[*:1])C(=O)[*:2])C2=O; 4‑DMN = 4-DMN: an environment-sensitive fluorophore; 9‑Å linker = not defined here
Catalogue of pKd values
Measured attribute: pKd

Binder	Measured value
GB1-KKKISKADIGAPSGFKHVSHVGWDPQNGFDVNNLDPDLRCL[4‑DMNA]SRAGIS-His6 (domain or fragment)	6.41
GB1-KKKISKADIGAPSGFKHVSHVGWDPQNGFDVNNLDPDLRSLC([9‑Å linker-4‑DMN])SRAGIS-His6 (domain or fragment, UniProt P42768 230-277, looked up, not fully specified; reading uncertain) [4-DMN sensor 3 (GB1-WASP(230–277)-His6, Phe271Cys, Cys271 labeled with 4-DMN through a 9-Å linker)]	6.47

All values here come from paper PMC3156282.
